pKi: −log10 of the molar value.
Lab note: pKi readings collected with Cathepsin D (Homo sapiens, UniProt P07339) for the following compounds.
Sequence (P07339 65-162 limits assumed): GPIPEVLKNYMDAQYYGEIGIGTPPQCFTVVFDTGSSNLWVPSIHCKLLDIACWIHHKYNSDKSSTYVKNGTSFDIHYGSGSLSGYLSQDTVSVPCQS
Sequence (P07339 169-412 limits assumed): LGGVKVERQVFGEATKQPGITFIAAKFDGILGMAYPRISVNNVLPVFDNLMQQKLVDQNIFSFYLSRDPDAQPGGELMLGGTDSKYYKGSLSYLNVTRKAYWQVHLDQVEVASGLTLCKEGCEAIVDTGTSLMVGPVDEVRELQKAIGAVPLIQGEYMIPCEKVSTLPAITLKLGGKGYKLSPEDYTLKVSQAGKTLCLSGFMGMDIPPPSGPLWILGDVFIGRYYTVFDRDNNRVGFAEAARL

# Compound Structure String, Target Desc, Qualifying Sign, pKi
rows = [
    ("CC#CCOc1cnc2c(Nc3cc([C@]4(C)CS(=O)(=O)[C@@](C)(C5CC5)C(N)=N4)c(F)cn3)nccc2n1", "Cathepsin D (Homo sapiens, UniProt P07339)", "<", 5.03),
    ("C[C@@]1(c2cc(Nc3ccnc4cc(F)cnc34)ncc2F)CS(=O)(=O)[C@@](C)(C2CC2)C(N)=N1", "Cathepsin D (Homo sapiens, UniProt P07339)", "=", 5.31),
    ("C[C@@]1(c2cc(Nc3nccc4cc(C#N)cnc34)ccc2F)CS(=O)(=O)[C@@](CF)(C2CC2)C(N)=N1", "Cathepsin D (Homo sapiens, UniProt P07339)", "=", 6.25),
    ("C[C@@]1(c2cc(Nc3ccnc4cccnc34)ncc2F)CS(=O)(=O)[C@@](C)(C2CC2)C(N)=N1", "Cathepsin D (Homo sapiens, UniProt P07339)", "<", 5.03),
]

====

- Target Desc: UniProt Q9Y5Z0
- Sequence (Q9Y5Z0 whole entry): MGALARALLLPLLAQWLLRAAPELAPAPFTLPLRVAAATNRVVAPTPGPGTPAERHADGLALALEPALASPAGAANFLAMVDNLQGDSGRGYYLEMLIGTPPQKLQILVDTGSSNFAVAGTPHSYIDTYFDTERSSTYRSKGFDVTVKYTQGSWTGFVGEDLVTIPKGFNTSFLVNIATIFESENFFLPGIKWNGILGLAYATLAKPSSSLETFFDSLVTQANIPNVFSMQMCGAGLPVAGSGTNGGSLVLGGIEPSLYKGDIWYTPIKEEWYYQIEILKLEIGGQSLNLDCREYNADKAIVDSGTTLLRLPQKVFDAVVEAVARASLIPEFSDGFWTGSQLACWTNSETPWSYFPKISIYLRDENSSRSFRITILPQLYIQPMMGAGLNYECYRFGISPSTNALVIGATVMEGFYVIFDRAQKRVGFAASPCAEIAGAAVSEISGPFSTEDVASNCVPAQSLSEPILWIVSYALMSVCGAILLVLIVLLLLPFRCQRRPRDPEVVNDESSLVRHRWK
- Experiment Description: BACE-2 Assay: The compounds of the invention were determined to be potent inhibitors of BACE-2 using the following assay. Inhibitor IC50s at purified human autoBACE-2 are determined in a time-resolved endpoint proteolysis assay that measures hydrolysis of the QSY7-[…]-Eu-amide FRET peptide substrate (BACE-HTRF assay). BACE-mediated hydrolysis of this peptide results in an increase in relative fluorescence (RFU) at 620 nm after excitation with 320 nm light Inhibitor compounds, prepared at 3× the desired final concentration in 1×BACE assay buffer (20 mM sodium acetate pH 5.0, 10% glycerol, 0.1% Brij-35) supplemented with 7.5% DMSO are pre-incubated with an equal volume of autoBACE-2 enzyme diluted in 1×BACE assay buffer (final enzyme concentration 1 nM) in black 384-well NUNC plates for 30 minutes at 30° C. […] DMSO is present at 5% final concentration in the assay. Following laser excitation of sample wells at 320 nm, the fluorescence signal at 620 nm is collected for 400 ms following a 50 μs delay on a RUBYstar HTRF plate reader (BMG Labtechnologies). Raw RFU data is normalized to maximum (1.0 nM BACE/DMSO) and minimum (no enzyme/DMSO) RFU values.
Experimental Readout: log10(Ki) (log10 of the value in nM)

# Compound Structure String, Target Desc, Recorded Value
records = [
    ("C[C@@]1(c2cc(Nc3ccnc4cccnc34)ncc2F)CS(=O)(=O)[C@@](C)(C2CC2)C(N)=N1", "UniProt Q9Y5Z0", 0.56),
    ("COc1cnc2c(Nc3ccc(F)c([C@]4(C)CS(=O)(=O)[C@@](C)(C5CC5)C(N)=N4)c3)ccnc2n1", "UniProt Q9Y5Z0", 1.72),
    ("CC#CCOc1cnc2c(Nc3cnc(F)c([C@]4(C)CS(=O)(=O)[C@@](C)(C5CC5)C(N)=N4)c3)nccc2c1", "UniProt Q9Y5Z0", 2.08),
    ("COc1cnc2c(Nc3ccc(F)c([C@]4(C)CS(=O)(=O)[C@@](C)(C5CC5)C(N)=N4)c3)ccnc2c1", "UniProt Q9Y5Z0", 1.30),
    ("C[C@@]1(c2cc(Nc3nccc4cc(C#N)cnc34)ccc2F)CS(=O)(=O)[C@@](CF)(C2CC2)C(N)=N1", "UniProt Q9Y5Z0", -0.22),
    ("CC#CCOc1cnc2c(Nc3cnc(F)c([C@]4(C)CS(=O)(=O)[C@@](C)(C5CC5)C(N)=N4)c3)nccc2n1", "UniProt Q9Y5Z0", 1.38),
    ("C[C@@]1(c2cc(Nc3ccnc4cc(F)cnc34)ncc2F)CS(=O)(=O)[C@@](C)(C2CC2)C(N)=N1", "UniProt Q9Y5Z0", 0.23),
    ("C[C@@]1(c2cc(Nc3ncnc4cc(C#N)cnc34)ncc2F)CS(=O)(=O)[C@@](C)(C2CC2)C(N)=N1", "UniProt Q9Y5Z0", 1.28),
]

====

- Target Desc: Beta-secretase 1 (Homo sapiens, UniProt P56817)
- Sequence (P56817 whole entry, the tested form may be a part): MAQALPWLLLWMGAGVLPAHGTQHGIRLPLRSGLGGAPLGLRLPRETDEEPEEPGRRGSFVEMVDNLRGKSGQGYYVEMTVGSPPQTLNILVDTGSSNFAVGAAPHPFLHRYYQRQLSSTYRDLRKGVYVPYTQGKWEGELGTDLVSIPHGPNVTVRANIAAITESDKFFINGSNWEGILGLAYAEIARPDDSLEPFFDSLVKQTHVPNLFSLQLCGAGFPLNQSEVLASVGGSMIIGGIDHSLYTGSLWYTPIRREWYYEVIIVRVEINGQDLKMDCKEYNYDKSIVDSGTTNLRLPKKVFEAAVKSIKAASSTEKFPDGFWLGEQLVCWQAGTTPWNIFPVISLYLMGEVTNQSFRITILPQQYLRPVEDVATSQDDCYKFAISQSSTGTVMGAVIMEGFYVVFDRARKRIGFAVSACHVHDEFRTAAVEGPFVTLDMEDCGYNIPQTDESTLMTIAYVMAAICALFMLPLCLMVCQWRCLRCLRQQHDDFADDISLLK
- Experiment Description: HTRF FRET Assay: The compounds of the invention were determined to be potent inhibitors of BACE-1 using the following assay.The following reagents were used in this assay. Na+-Acetate pH 5.0; 1% Brij-35; Glycerol; Dimethyl Sulfoxide (DMSO); Recombinant human soluble BACE-1 catalytic domain (>95% pure); APP Swedish mutant peptide substrate (QSY7-APPswe-Eu): QSY7-[…]-Europium-amide.A homogeneous time-resolved FRET assay can be used to determine IC50 values for inhibitors of the soluble human BACE-1 catalytic domain. This assay monitors the increase of 620 nm fluorescence that resulted from BACE-1 cleavage of an APPswedish APPswe mutant peptide FRET substrate (QSY7-[…]-Europium-amide). This substrate contains an N-terminal QSY7 moiety that serves as a quencher of the C-terminal Europium fluorophore (620 nm Em). In the absence of enzyme activity, 620 nm fluorescence is low in the assay and increased linearly over 3 hours in the presence of uninhibited BACE-1 enzyme. Inhibition of BACE-1 cleavage of the QSY7-APPswe-Eu substrate by inhibitors is manifested as a suppression of 620 nm fluorescence.
pKi: −log10 of the molar value.

# Compound Structure String, pKi
data = [
    ("C[C@@]1(c2cc(Nc3ncnc4cc(C#N)cnc34)ncc2F)CS(=O)(=O)[C@@](C)(C2CC2)C(N)=N1", 7.89),
    ("C[C@@]1(c2cc(Nc3ccnc4cccnc34)ncc2F)CS(=O)(=O)[C@@](C)(C2CC2)C(N)=N1", 7.23),
    ("C[C@@]1(c2cc(Nc3nccc4cc(F)cnc34)ncc2F)CS(=O)(=O)[C@@](C)(C2CC2)C(N)=N1", 7.92),
]
